These entries and their values trace back to ChEMBL document CHEMBL1148680.

biological target: UniProt P51681; assay: Inhibition of [125I]MIP-1beta binding to CCR5 expressed in HEK293 cells
Sequence (P51681 whole entry): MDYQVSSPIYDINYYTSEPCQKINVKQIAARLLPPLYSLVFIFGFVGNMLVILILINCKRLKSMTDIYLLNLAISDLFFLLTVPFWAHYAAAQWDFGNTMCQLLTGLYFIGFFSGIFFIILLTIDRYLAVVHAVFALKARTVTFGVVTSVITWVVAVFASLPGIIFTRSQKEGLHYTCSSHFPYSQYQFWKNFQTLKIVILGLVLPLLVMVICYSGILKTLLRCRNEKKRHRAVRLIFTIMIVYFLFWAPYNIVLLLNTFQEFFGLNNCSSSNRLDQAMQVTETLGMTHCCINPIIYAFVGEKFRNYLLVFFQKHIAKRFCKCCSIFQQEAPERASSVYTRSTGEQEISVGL
Quantity Kind: pIC50
# reply with the number alone; pIC50 is -log10 of concentration in mol/L

Illustrative cases are given below, each with its answer.
Compound	Tested On	Quantity Kind	Measurement
Cc1nc(C2CCN(CC[C@H](NC(=O)C3CCC3)c3ccccc3)CC2)no1	UniProt P51681	pIC50	7.15
O=C(N[C@@H](CCN1CCC(n2cnc(Cc3ccccc3)n2)CC1)c1ccccc1)C1CCC1	UniProt P51681	pIC50	8.30
O=C(Cc1ccc(F)cc1)NC1CCN(CC[C@H](NC(=O)C2CCC2)c2ccccc2)CC1	UniProt P51681	pIC50	9.15
Cc1nnc(C)n1C1CCN(CC[C@H](NC(=O)C2CCC2)c2ccccc2)CC1	UniProt P51681	pIC50	7.30
Cc1nc2ccccc2n1C1CC2COCC(C1)N2CC[C@H](NC(=O)C1CCC1)c1ccccc1 (some centres not stated)	UniProt P51681	pIC50	7.41
Cc1nnc(Cc2ccccc2)n1C1CCN(CC[C@H](NC(=O)C2CCC2)c2ccccc2)CC1	UniProt P51681	pIC50	6.60

Query block: Kindly state the measured pIC50 obtained for `O=C(N[C@@H](CCN1CCC(c2noc(Cc3ccccc3)n2)CC1)c1ccccc1)C1CCC1` with UniProt P51681.
Result block: 7.70
